- assay.system: Beta-2 adrenergic receptor (Homo sapiens)
- assay.comment: Adrenergic beta2 receptor (ADRB2) small molecule antagonists, cell-based qHTS assay (AID 1963592); also: nearly all actives have a fitted effect of over 50% in size
- cond: CHO-ADRB2 cells, isoproterenol-stimulated cAMP HTRF ratio, 0.5 h; series mostly up to 92.4 µM
Inconclusive results are not listed. The source made the active and inactive calls. Calls follow the shape of the full dose curve.
Select the correct class. Options are active, inactive and nothing else.

Examples with answers:
>>> label_value("C#CCN(C)CCCOc1ccc(Cl)cc1Cl")
"inactive"
>>> label_value("CCSCC")
"inactive"
>>> label_value("CC(=O)OC(C)OC(=O)C(C)c1ccc(-c2ccccc2)c(F)c1 (stereo not given)")
"inactive"
>>> label_value("CC(=O)OC(C(=O)c1ccccc1)c1ccccc1 (stereo not given)")
"inactive"
>>> label_value("Cc1nnc(SCC2=C(C(=O)O)N3C(=O)[C@@H](NC(=O)Cn4cnnn4)[C@H]3SC2)s1")
"inactive"

Input line: Record request — test call for COc1cc(C(=O)NC2CCN(C)CC2)ccc1Nc1ncc2c(n1)N(C1CCCC1)CC(F)(F)C(=O)N2C
Output line: inactive

Input line: // outcome(item) with item = COCCCOCCCOC
Output line: inactive

###

- assay.comment: Nuclear factor erythroid 2-related factor 2/antioxidant responsive element (Nrf2/ARE) small molecule agonists: qHTS cell viability counter screen in human keratinocytes (AID 1919968); also: nearly all actives have a fitted effect of over 55% in size
- cond: KeratinoSens HaCaT ARE cells viability, CellTiter-Fluor, 24 h; series mostly up to 92.4 µM
Inconclusive results are not listed. Activity calls are given as the source filed them. Calls come from the whole dose curve; as a rule, active = well fitted cell-killing curve with a large enough effect in the repeat runs; inconclusive = weak or mixed curves, or effect the other way; inactive = flat fitted curve, though single readings scatter.
Choose one outcome from this list and give only that: active, inactive

>>> label_value("OCCC1CCCCN1 (configuration not stated)")
"inactive"
>>> label_value("CC(C)(C)CC(C)(C)N")
"inactive"
>>> label_value("C=CCOC(=O)c1ccc(C(=O)OCC=C)c(C(=O)OCC=C)c1")
"inactive"

Input line: Outcome logged for COCC(=O)O[C@]1(CCN(C)CCCc2nc3ccccc3[nH]2)CCc2cc(F)ccc2[C@@H]1C(C)C in this assay:
Output line: active

Input line: Called result for O=C(O)CCSSCCC(=O)O
Output line: inactive

Input line: Assay outcome for C[C@H]1c2cccc(O)c2C(O)=C2C(=O)[C@]3(O)C(O)=C(C(N)=O)C(=O)[C@@H](N(C)C)[C@@H]3[C@@H](O)[C@@H]21 : what was it?
Output line: inactive

Input line: For CC(C)NC(=O)c1ccc(C=O)cc1 , what call appears in the results of this test?
Output line: inactive

Input line: Test call, this compound: O=C(O)c1ccccc1C(=O)OCc1ccccc1
Output line: inactive

Input line: Given CC(C)(C)c1ccc(-c2ccc(C(C)(C)C)cc2)cc1 , state the outcome it received in this test.
Output line: inactive

Input line: Status in this test for C=CC(=O)NC(C)(C)C ?
Output line: inactive

Input line: Query: recorded result category for Cc1ncc([C@@H](CCCCCCc2ccc3c(n2)NCCC3)CC(=O)O)cn1 in this test
Output line: inactive

Input line: Test call, this compound: O=C[C@@H](O)[C@H](O)[C@H](O)CO
Output line: inactive

###

- assay.comment: p53 small molecule agonists, cell-based qHTS assay with rat liver microsomes: qHTS cell viability counter screen (AID 1963580); also: nearly all actives have a fitted effect of over 45% in size
- cond: p53RE-bla HCT-116 + rat microsomes, ATP viability, 16 h; series mostly up to 66 µM
Results filed as inconclusive are left out. The source made the active and inactive calls. Calls come from the whole dose curve.
Tick one outcome: active, inactive

Input line: Per the records of this test, what outcome belongs to c1cc(OCC2CO2)cc(OCC2CO2)c1 (stereo unspecified) ?
Output line: inactive

###

- assay.system: 5-hydroxytryptamine receptor 2A (Homo sapiens)
- assay.comment: 5-hydroxytryptamine receptor 2A (HTR2A) small molecule agonists, cell-based qHTS assay (AID 1963587); also: nearly all actives have a fitted effect of over 30% in size
- cond: HTR2A-CHO cells, calcium flux fluorescence, agonist mode; series mostly up to 76.8 µM
Results filed as inconclusive are left out. Activity calls are given as the source filed them. The call rests on the fitted dose curve.
Pick one and only one: y (active), n (inactive)

Example cases with answers are listed next.
>>> label_value("COc1cccc(N(C)C(=S)Oc2ccc3c(c2)CCCC3)n1")
"n"
>>> label_value("C=C(C)[C@@H]1CC=C(C)C(=O)C1")
"n"
>>> label_value("NC(=O)N(O)[C@@H]1COc2cc(OCc3ccccc3)ccc21")
"n"
>>> label_value("O=C(CC(=O)C(F)(F)F)c1ccccc1")
"y"
>>> label_value("CCCCN(CCCC)CC(O)c1cc(Cl)cc2c1-c1ccc(Cl)cc1/C2=C/c1ccc(Cl)cc1 (stereo not drawn)")
"n"
>>> label_value("Cc1ccc(C)c([N+](=O)[O-])c1")
"n"

Input line: Could you please tell me the result logged for O=S(c1cc(Cl)cc(Cl)c1O)c1cc(Cl)cc(Cl)c1O in this assay?
Output line: n

Input line: Can you look up the reported call for FC(F)(Cl)C(F)(Cl)Cl for me?
Output line: n

Input line: Please state the recorded outcome for this compound: Nc1ncn([C@H]2C[C@H](O)[C@@H](CO)O2)c(=O)n1
Output line: n

Input line: Which outcome did this test record for the compound NCCCOCCOCCOCCCN ?
Output line: n

###

- assay.system: 5-hydroxytryptamine receptor 2A (Homo sapiens) (UniProt P28223)
- Sequence (P28223 whole entry, looked up): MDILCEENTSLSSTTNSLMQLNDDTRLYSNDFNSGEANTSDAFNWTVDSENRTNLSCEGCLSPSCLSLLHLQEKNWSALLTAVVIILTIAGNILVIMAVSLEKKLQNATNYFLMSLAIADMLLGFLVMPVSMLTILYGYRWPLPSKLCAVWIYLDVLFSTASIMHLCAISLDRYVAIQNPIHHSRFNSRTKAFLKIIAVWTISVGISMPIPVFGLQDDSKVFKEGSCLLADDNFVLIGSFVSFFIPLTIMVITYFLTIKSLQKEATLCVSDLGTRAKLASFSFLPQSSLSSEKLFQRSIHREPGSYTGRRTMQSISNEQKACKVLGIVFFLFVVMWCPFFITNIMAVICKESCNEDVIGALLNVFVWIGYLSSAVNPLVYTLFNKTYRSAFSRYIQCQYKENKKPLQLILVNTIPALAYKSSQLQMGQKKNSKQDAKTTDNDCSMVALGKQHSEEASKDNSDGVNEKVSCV
- assay.comment: 5-hydroxytryptamine receptor 2A (HTR2A) small molecule agonists, cell-based qHTS assay (AID 1963587); also: nearly all actives have a fitted effect of over 30% in size
- cond: HTR2A-CHO cells, calcium flux fluorescence, agonist mode; series mostly up to 76.8 µM
Records with an inconclusive call do not appear. Calls of active or inactive are those of the source. Calls follow the shape of the full dose curve.
Entry note: the call must match one of active, inactive

Input line: Hi, do you know how O=c1[nH]c2ccc(S(=O)CCN3CCC(Cc4ccc(F)cc4)CC3)cc2o1 (stereo not given) came out in this test?
Output line: inactive

Input line: Please let me know the test result on file for Nc1ccc2c3c(cccc13)-c1ccccc1-2 .
Output line: active

###

- assay.system: 5-hydroxytryptamine receptor 2A (Homo sapiens)
- assay.comment: 5-hydroxytryptamine receptor 2A (HTR2A) small molecule antagonists, cell-based qHTS assay (AID 1963586); also: nearly all actives have a fitted effect of over 45% in size
- cond: HTR2A-CHO cells, DOI-induced calcium flux, fluorescence; series mostly up to 61.5 µM
Inconclusive results are not listed. Calls of active or inactive are those of the source. The call rests on the fitted dose curve.
Select the correct class. Options are active, inactive and nothing else.

Recorded results for 2 compounds are shown here.
>>> label_value("O=C(O)Cc1ccc(OCCNC[C@H](O)c2ccccc2)cc1")
"inactive"
>>> label_value("Nc1cc(Cl)cc(S(=O)(=O)O)c1O")
"inactive"

Input line: Write down the call the test reported for this compound. Item: CCO[Si](CC(C)C)(OCC)OCC
Output line: inactive

Input line: Answer briefly: the call reported for C[C@@H](CN(C)C)CN1c2ccccc2Sc2ccccc21 in this assay.
Output line: active

Input line: GET /call?item= C=C[Si]1(C)O[Si](C)(C=C)O[Si](C)(C=C)O[Si](C)(C=C)O1 (stereo unspecified) returns the recorded outcome of this test.
Output line: inactive

Input line: // param item: O=S(=O)(O)c1cc(Cl)c(Cl)cc1Cl ; yields the recorded call
Output line: inactive

###

- assay.system: 5-hydroxytryptamine receptor 2A (Homo sapiens) (UniProt P28223)
- assay.comment: 5-hydroxytryptamine receptor 2A (HTR2A) small molecule antagonists, cell-based qHTS assay (AID 1963586); also: nearly all actives have a fitted effect of over 45% in size
- cond: HTR2A-CHO cells, DOI-induced calcium flux, fluorescence; series mostly up to 61.5 µM
Results filed as inconclusive are left out. Calls of active or inactive are those of the source. The call rests on the fitted dose curve.
Classes to choose from: YES = active, NO = inactive

Answered examples (2):
>>> label_value("COc1ccc(/C=N/NC(=O)c2ccncc2)cc1OC")
"NO"
>>> label_value("O=C(Nc1ccc2c(c1)Cc1ccccc1-2)C(F)(F)F")
"NO"

Input line: Outcome? S=C([S-])NCCNC(=S)[S-].[Mn+2]
Output line: NO

Input line: Fill in: this test's call for CCO[Si](CCCSSSSCCC[Si](OCC)(OCC)OCC)(OCC)OCC is ___
Output line: NO

Input line: Record request — test call for CCCCCCOc1ccccc1C(N)=O
Output line: NO

Input line: Per the records of this test, what outcome belongs to CC1=NN(c2cc(S(=O)(=O)O)ccc2Cl)C(=O)C1N=Nc1ccccc1 (configuration not stated) ?
Output line: NO

Input line: What outcome does the record of this test show for CC(CC=O)c1ccccc1 (configuration not stated) ?
Output line: NO

###

- assay.system: Muscarinic acetylcholine receptor M1 (Homo sapiens) (UniProt P11229)
- Sequence (P11229 whole entry, looked up): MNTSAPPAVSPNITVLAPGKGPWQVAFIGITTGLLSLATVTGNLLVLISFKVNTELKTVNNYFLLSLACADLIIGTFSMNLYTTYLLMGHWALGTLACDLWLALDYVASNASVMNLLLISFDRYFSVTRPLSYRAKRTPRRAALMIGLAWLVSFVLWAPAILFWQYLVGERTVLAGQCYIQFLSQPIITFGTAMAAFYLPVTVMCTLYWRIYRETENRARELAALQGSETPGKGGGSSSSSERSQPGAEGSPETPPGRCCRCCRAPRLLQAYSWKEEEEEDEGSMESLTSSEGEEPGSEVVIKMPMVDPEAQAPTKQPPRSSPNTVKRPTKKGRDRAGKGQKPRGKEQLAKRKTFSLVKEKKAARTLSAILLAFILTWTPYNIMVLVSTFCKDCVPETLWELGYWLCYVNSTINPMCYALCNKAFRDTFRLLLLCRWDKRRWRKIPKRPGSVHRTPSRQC
- assay.comment: Cholinergic receptor muscarinic 1 (CHRM1) small molecule antagonists, cell-based qHTS assay (AID 1963588); also: nearly all actives have a fitted effect of over 40% in size; also: potency is read from the fitted curve at half-maximal effect
- cond: CHRM1-CHO antagonist mode, calcium flux fluorescence; series mostly up to 61.5 µM
Records with an inconclusive call do not appear. Active and inactive are the calls of the source. Calls follow the shape of the full dose curve.
property.measured: Potency

Past entries and their recorded results:
>>> result("CC(C)c1ccccc1N")
"inactive"
>>> result("C=C1c2cccc(O)c2C(O)=C2C(=O)[C@]3(O)C(O)=C(C(N)=O)C(=O)[C@@H](N(C)C)[C@@H]3[C@@H](O)[C@H]12")
"inactive"
>>> result("O=S(=O)(O)c1cc(O)ccc1O")
"inactive"
>>> result("COc1ccc2cc(S(=O)(=O)N[C@H](CC(=O)N[C@H](Cc3ccc(CN4[C@H](C)CCC[C@@H]4C)cc3)C(=O)N(C)C(C)C)c3ccc4c(c3)OCO4)ccc2c1")
"794 nM (active)"

Input line: API: value(readout=Potency, system=Muscarinic acetylcholine receptor M1 (Homo sapiens) (UniProt P11229)) for record COc1cc(NCc2ccc3nc(N)nc(N)c3c2C)cc(OC)c1OC
Output line: inactive
